# target or system: HLA-A*01:01 class I complex (biotinylated heavy chain with beta2-microglobulin) (human)
# protocol: UV peptide exchange + HLA class I ELISA; % of Pos control peptide
# measurement conditions: remark: other sources report otherwise
Values of exchange rate with Pos peptide strictly less than 3% map to MET, and values of at least 3% map to NOT MET.

binder="YLRRQKRLK (here or on the partner: biotinylated heavy chain) [P60 9-mer neoantigen peptide … (FOXA1.p.F266L missense)]" label="NOT MET"

Query: Problem: For the binder CPMSRLRLA (here or on the partner: biotinylated heavy chain) [P46 9-mer neoantigen peptide … (TP53 (R213D) frameshift)] , is exchange rate with Pos peptide under 3%?
Result: MET

Query: Problem: For the binder YQFTFDLLI (here or on the partner: biotinylated heavy chain) [P48 9-mer neoantigen peptide … (AR.p.H875Y missense)] , is exchange rate with Pos peptide under 3%?
Result: NOT MET

Query: Problem: For the binder HVPKILSGK (here or on the partner: biotinylated heavy chain) [P58 9-mer neoantigen peptide … (AR (Q903H) missense)] , is exchange rate with Pos peptide under 3%?
Result: MET

Query: Problem: For the binder QLIAMDSAI (here or on the partner: biotinylated heavy chain) [P22 9-mer neoantigen peptide … (SLC45A3-ELK4 fusion)] , is exchange rate with Pos peptide under 3%?
Result: NOT MET

Query: Problem: For the binder RAKCKFSIL (here or on the partner: biotinylated heavy chain) [P56 9-mer neoantigen peptide … (SPOP(F102C) missense)] , is exchange rate with Pos peptide under 3%?
Result: MET
